TESTED_TARGET: Sushi domains (SD1/2) protein of the GABAB1a (GB1a) subunit, recombinant
Sequence (Q9Z0U4 29-158): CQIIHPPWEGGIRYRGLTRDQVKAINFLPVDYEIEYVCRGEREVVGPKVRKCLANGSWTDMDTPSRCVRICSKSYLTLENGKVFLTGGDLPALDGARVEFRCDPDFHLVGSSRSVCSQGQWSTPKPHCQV
ASSAY_DETAILS: FP competition
Starred links: 1 amine or outer side, 2 acyl side, 3 side chain; linkers in the order of their positions; H or OH if unused. Non-standard residues stand in square brackets, D forms with d. Tyr(Et) = Oetyr, O-ethyl-L-tyrosine, CCOc1ccc(C[C@H](N[*:1])C(=O)[*:2])cc1; NMeW = CN[C@@H](Cc1c[nH]c2ccccc12)C(=O)O; 1Nal = N[C@@H](Cc1cccc2ccccc12)C(=O)O; NMeF = CN[C@@H](Cc1ccccc1)C(=O)O
Recorded log10(Ki) for the following binders
Give log10 of Ki, with Ki taken in nM.

[[record]]
binder = "Ac-PWAIVWGP[dT]VSRED-NH2 [PWAIVWGPtVSRED]"
endpoint_label = "log10(Ki)"
endpoint_value = 3.11

[[record]]
binder = "Ac-ETE[NMeF]IAWGPTGDED-NH2 (SMILES CC[C@H](C)[C@H](NC(=O)[C@H](Cc1ccccc1)N(C)C(=O)[C@H](CCC(=O)O)NC(=O)[C@@H](NC(=O)[C@H](CCC(=O)O)NC(C)=O)[C@@H](C)O)C(=O)N[C@@H](C)C(=O)N[C@@H](Cc1c[nH]c2ccccc12)C(=O)NCC(=O)N1CCC[C@H]1C(=O)N[C@H](C(=O)NCC(=O)N[C@@H](CC(=O)O)C(=O)N[C@@H](CCC(=O)O)C(=O)N[C@@H](CC(=O)O)C(N)=O)[C@@H](C)O) [ETE(N-Me-F)…]"
endpoint_label = "log10(Ki)"
endpoint_value = 2.40

[[record]]
binder = "Ac-EDDSDVW[NMeW]GGADTD-NH2 (SMILES CC(=O)N[C@@H](CCC(=O)O)C(=O)N[C@@H](CC(=O)O)C(=O)N[C@@H](CC(=O)O)C(=O)N[C@@H](CO)C(=O)N[C@@H](CC(=O)O)C(=O)N[C@H](C(=O)N[C@@H](Cc1c[nH]c2ccccc12)C(=O)N(C)[C@@H](Cc1c[nH]c2ccccc12)C(=O)NCC(=O)NCC(=O)N[C@@H](C)C(=O)N[C@@H](CC(=O)O)C(=O)N[C@H](C(=O)N[C@@H](CC(=O)O)C(N)=O)[C@@H](C)O)C(C)C) [EDDSDVW(N-Me-W)GGADTD]"
endpoint_label = "log10(Ki)"
endpoint_value = 3.14


Request the reported log10(Ki) associated with Ac-EDDSDVWWYGADTD-NH2 [… (APPWT mutant G211Y)] 2.03

Do the same for Ac-ETEFIAWGPT[dA]DED-NH2 (SMILES CC[C@H](C)[C@H](NC(=O)[C@H](Cc1ccccc1)NC(=O)[C@H](CCC(=O)O)NC(=O)[C@@H](NC(=O)[C@H](CCC(=O)O)NC(C)=O)[C@@H](C)O)C(=O)N[C@@H](C)C(=O)N[C@@H](Cc1c[nH]c2ccccc12)C(=O)NCC(=O)N1CCC[C@H]1C(=O)N[C@H](C(=O)N[C@H](C)C(=O)N[C@@H](CC(=O)O)C(=O)N[C@@H](CCC(=O)O)C(=O)N[C@@H](CC(=O)O)C(N)=O)[C@@H](C)O) […aDED] please 1.73

Do the same for `Ac-PWAIVWGPT-NH2` please 2.85

Do the same for `Ac-PAAIVWGPTVSRED-NH2` please 2.96

Do the same for `Ac-EDDSFVWWGGADTD-NH2` please 2.15

Do the same for Ac-EDDSDVWW[Tyr(Et)]GADTD-NH2 (SMILES CCOc1ccc(C[C@H](NC(=O)[C@H](Cc2c[nH]c3ccccc23)NC(=O)[C@H](Cc2c[nH]c3ccccc23)NC(=O)[C@@H](NC(=O)[C@H](CC(=O)O)NC(=O)[C@H](CO)NC(=O)[C@H](CC(=O)O)NC(=O)[C@H](CC(=O)O)NC(=O)[C@H](CCC(=O)O)NC(C)=O)C(C)C)C(=O)NCC(=O)N[C@@H](C)C(=O)N[C@@H](CC(=O)O)C(=O)N[C@H](C(=O)N[C@@H](CC(=O)O)C(N)=O)[C@@H](C)O)cc1) [EDDSDVWW(Oetyr)GADTD] please 2.00

Do the same for `Ac-TETEFIAWGPTGDEDAL-NH2` please 1.67

Do the same for Ac-EDDSDVWW[1Nal]GADTD-NH2 (SMILES CC(=O)N[C@@H](CCC(=O)O)C(=O)N[C@@H](CC(=O)O)C(=O)N[C@@H](CC(=O)O)C(=O)N[C@@H](CO)C(=O)N[C@@H](CC(=O)O)C(=O)N[C@H](C(=O)N[C@@H](Cc1c[nH]c2ccccc12)C(=O)N[C@@H](Cc1c[nH]c2ccccc12)C(=O)N[C@@H](Cc1cccc2ccccc12)C(=O)NCC(=O)N[C@@H](C)C(=O)N[C@@H](CC(=O)O)C(=O)N[C@H](C(=O)N[C@@H](CC(=O)O)C(N)=O)[C@@H](C)O)C(C)C) [EDDSDVWW(1Nala)GADTD] please 2.00

Do the same for `Ac-EEDDSDVWWGGADTDYADG-NH2` please 2.54

Do the same for Ac-EDDS[Tyr(Et)]VWWGGADTD-NH2 (SMILES CCOc1ccc(C[C@H](NC(=O)[C@H](CO)NC(=O)[C@H](CC(=O)O)NC(=O)[C@H](CC(=O)O)NC(=O)[C@H](CCC(=O)O)NC(C)=O)C(=O)N[C@H](C(=O)N[C@@H](Cc2c[nH]c3ccccc23)C(=O)N[C@@H](Cc2c[nH]c3ccccc23)C(=O)NCC(=O)NCC(=O)N[C@@H](C)C(=O)N[C@@H](CC(=O)O)C(=O)N[C@H](C(=O)N[C@@H](CC(=O)O)C(N)=O)[C@@H](C)O)C(C)C)cc1) [EDDS(Oetyr)…] please 1.67
